STUDY_SYSTEM: Human M4 mAChR (Homo sapiens, UniProt P08173)
Construct: host or cells: HEK293 (Sor-L9 HEK293 human/M4/GloSensor Cell Clone Number 40)
EXPERIMENTAL_PROTOCOL: Muscarinic hM4 Agonist GloSensor cAMP Assay
Format: cell-based
ASSAY_CONDITIONS: Emax: maximum asymptote of concentration response curve, relative to ACh positive control (EC100) and DMSO; geometric mean; read-out: % maximum effect
RECORDED_METRIC: Emax
Record the result as a number with its unit.

QUERY: State the measured Emax (Human M4 mAChR (Homo sapiens, UniProt P08173)) of CCOC(=O)N1CC2(CCC(N3CCN(c4ncccc4-c4cnc(O)cn4)CC3)C2)C1 (stereo not shown)
RESULT: 83.9%

QUERY: Quote Emax with test system Human M4 mAChR (Homo sapiens, UniProt P08173) for CCOC(=O)N1CC2(CCC(N3CCN(c4ncccc4-c4cnc(OC)cn4)CC3)C2)C1 (single isomer, unassigned) [Example 3]
RESULT: 83.7%

QUERY: Param request: Emax | system Human M4 mAChR (Homo sapiens, UniProt P08173) | item `CCOC(=O)N1CC2(CC[C@@H](N3CCN(c4ncccc4-c4ccncn4)CC3)C2)C1`
RESULT: 96.6%

QUERY: Provide the reported Emax (system: Human M4 mAChR (Homo sapiens, UniProt P08173)) for CCOC(=O)N1CC2(CCC(N3CCN(c4ncccc4-c4ncco4)CC3)C2)C1 (stereo not shown)
RESULT: 54.9%

QUERY: Look up and report measured Emax (Human M4 mAChR (Homo sapiens, UniProt P08173)) for the following compound: CCOC(=O)N1CC2(CCC(N3CCN(c4ncccc4-c4sc(C)nc4C)CC3)C2)C1 (stereo not shown)
RESULT: 80.6%

QUERY: Report the value of Emax obtained on Human M4 mAChR (Homo sapiens, UniProt P08173) for CCOC(=O)N1CC2(CCC(N3CCN(c4cccnc4OC(F)F)CC3)C2)C1 (single isomer, unassigned) .
RESULT: 78.4%

QUERY: Recall the reported Emax of CCOC(=O)N1CC2(CCC(N3CCN(c4nccnc4OC)CC3)C2)C1 (single isomer, unassigned) when tested on Human M4 mAChR (Homo sapiens, UniProt P08173).
RESULT: 25.1%

QUERY: Report Emax under test system Human M4 mAChR (Homo sapiens, UniProt P08173) for `CCOC(=O)N1CC2(CC[C@@H](N3CCN(c4nccnc4N4CCOCC4)CC3)C2)C1` .
RESULT: 92.9%

QUERY: With Human M4 mAChR (Homo sapiens, UniProt P08173) as the test system, provide measured Emax for this compound: CCOC(=O)N1CCC2(CC(N3CCN(c4ncccc4-c4cnn(C)c4)CC3)C2)C1 (stereo not shown)
RESULT: 92.6%

QUERY: Quote Human M4 mAChR (Homo sapiens, UniProt P08173) Emax for entry CCOC(=O)N1CC2(CCC(N3CCN(c4ncccc4-c4ccc5nccn5c4)CC3)C2)C1 (stereo not shown) .
RESULT: 59.6%

QUERY: Find the measured Emax of `CCOC(=O)N1CC2(CC[C@@H](N3CCN(c4ncccc4OC)CC3)C2)C1` with Human M4 mAChR (Homo sapiens, UniProt P08173) as test system.
RESULT: 86.3%

QUERY: Look up Human M4 mAChR (Homo sapiens, UniProt P08173) data: Emax of CCOC(=O)N1CC2(CCC(N3CCN(c4ncccc4-c4ccc(OC)nc4)CC3)C2)C1 (stereo not shown) , then report it.
RESULT: 74.7%

QUERY: Write down the reported Emax (system: Human M4 mAChR (Homo sapiens, UniProt P08173)) of CCOC(=O)N1CC2(CCC(N3CCN(c4ncccc4-c4cnsn4)CC3)C2)C1 (stereo not shown) [Example 33]
RESULT: 92.3%

----------
STUDY_SYSTEM: Human M4 mAChR (Homo sapiens, UniProt P08173)
Construct: host or cells: HEK293 (Sor-L9 HEK293 human/M4/GloSensor Cell Clone Number 40)
Sequence (P08173 1-479): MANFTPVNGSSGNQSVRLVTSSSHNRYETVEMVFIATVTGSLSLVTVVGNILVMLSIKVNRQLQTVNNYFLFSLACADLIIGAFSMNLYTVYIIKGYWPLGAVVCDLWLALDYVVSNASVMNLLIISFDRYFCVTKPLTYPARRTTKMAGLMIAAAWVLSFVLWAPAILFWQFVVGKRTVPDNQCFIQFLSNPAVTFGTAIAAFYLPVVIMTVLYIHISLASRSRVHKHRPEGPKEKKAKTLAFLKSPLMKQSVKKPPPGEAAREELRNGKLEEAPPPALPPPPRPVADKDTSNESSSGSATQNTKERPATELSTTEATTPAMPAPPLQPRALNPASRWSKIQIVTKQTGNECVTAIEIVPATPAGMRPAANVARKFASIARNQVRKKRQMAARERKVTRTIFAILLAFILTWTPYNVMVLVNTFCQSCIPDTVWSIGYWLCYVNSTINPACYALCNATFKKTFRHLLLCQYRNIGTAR
EXPERIMENTAL_PROTOCOL: Muscarinic hM4 Agonist GloSensor cAMP Assay
Type: cell-based
ASSAY_CONDITIONS: Emax: maximum asymptote of concentration response curve, relative to ACh positive control (EC100) and DMSO; geometric mean; read-out: % maximum effect
Kindly supply the reported Emax values for the records listed here.
Please append the unit to your numeric answer.

QUERY: Determine reported Emax for CCOC(=O)N1CC2(CCC(N3CCN(c4ncccc4-c4cccnn4)CC3)C2)C1 (centres unmarked) [Example 45] ; test system: Human M4 mAChR (Homo sapiens, UniProt P08173).
RESULT: 35.2%

QUERY: // fetch Emax; item: CCOC(=O)N1CC2(CCC(N3CCN(c4ncccc4-c4ccnnc4)CC3)C2)C1 (centres unmarked) [Example 17] ; system: Human M4 mAChR (Homo sapiens, UniProt P08173)
RESULT: 92.3%

QUERY: Name the recorded Emax of CCOC(=O)N1CC2(CCC(N3CCN(c4ncccc4-c4nccnc4C)CC3)C2)C1 (centres unmarked) [Example 15] , assay system Human M4 mAChR (Homo sapiens, UniProt P08173).
RESULT: 58.5%

QUERY: Please indicate recorded Emax of CCOC(=O)N1CCC2(CC(N3CCN(c4ncccc4-c4cscn4)CC3)C2)C1 (centres unmarked) [Example 16] measured with Human M4 mAChR (Homo sapiens, UniProt P08173).
RESULT: 104%

QUERY: Retrieve Emax on Human M4 mAChR (Homo sapiens, UniProt P08173); query CCOC(=O)N1CC2(CC[C@@H](N3CCN(c4ncccc4-c4cnc(C)nc4)CC3)C2)C1 [Example 47]
RESULT: 63.5%

QUERY: Answer with Emax of CCOC(=O)N1CC2(CCC(N3CCN(c4cccnc4OCC(F)(F)F)CC3)C2)C1 (centres unmarked) [Example 10] measured for Human M4 mAChR (Homo sapiens, UniProt P08173).
RESULT: 91.5%

QUERY: Provide Emax, system Human M4 mAChR (Homo sapiens, UniProt P08173), entry CCOC(=O)N1CC2(CC[C@H](N3CCN(c4ncccc4OC)CC3)C2)C1 [Example 7]
RESULT: 47.7%

QUERY: Write Emax of CCOC(=O)N1CC2(CCC(N3CCN(c4ncccc4-c4cnc(OC)cn4)CC3)C2)C1 (centres unmarked) [Example 1] ; system used: Human M4 mAChR (Homo sapiens, UniProt P08173)
RESULT: 82.7%

QUERY: // fetch Emax for CCOC(=O)N1CC2(CC[C@@H](N3CCN(c4nccnc4N4CCC(OC)CC4)CC3)C2)C1 [Example 43] ; system: Human M4 mAChR (Homo sapiens, UniProt P08173)
RESULT: 55.5%

QUERY: Lab note: record Emax of CCOC(=O)N1CC2(CCC(N3CCN(c4ncccc4N4CCC(c5ccnn5C)CC4)CC3)C2)C1 (centres unmarked) [Example 28] tested on Human M4 mAChR (Homo sapiens, UniProt P08173).
RESULT: 60%

QUERY: Identify measured Emax obtained with Human M4 mAChR (Homo sapiens, UniProt P08173) for CCOC(=O)N1CCC2(CC(N3CCN(c4ncccc4-c4ccc(C#N)cn4)CC3)C2)C1 (single isomer, unassigned) [Example 23] .
RESULT: 85%

QUERY: GET Emax | system: Human M4 mAChR (Homo sapiens, UniProt P08173) | item: CCOC(=O)N1CC2(CC[C@@H](N3CCN(c4ncccc4-c4nncs4)CC3)C2)C1 [Example 5]
RESULT: 46.4%

QUERY: State Emax on Human M4 mAChR (Homo sapiens, UniProt P08173). Entry: CCOC(=O)N1CC2(CC[C@@H](N3CCN(c4ncccc4N4CC5(COC5)C4)CC3)C2)C1 [Example 44]
RESULT: 92.5%

QUERY: // fetch Emax; item: CCOC(=O)N1CC2(CC[C@@H](N3CCN(c4ncccc4-c4cscn4)CC3)C2)C1 [Example 4] ; system: Human M4 mAChR (Homo sapiens, UniProt P08173)
RESULT: 87.2%

QUERY: Provide Emax, system Human M4 mAChR (Homo sapiens, UniProt P08173), entry CCOC(=O)N1CCC2(CC(N3CCN(c4ncccc4OC)CC3)C2)C1 (centres unmarked) [Example 12]
RESULT: 95.2%

QUERY: Report its Emax with Human M4 mAChR (Homo sapiens, UniProt P08173) as the test system: CCOC(=O)N1CC2(CCC(N3CCN(c4ncccc4-c4ccc5nncn5c4)CC3)C2)C1 (centres unmarked) [Example 40]
RESULT: 81.6%

QUERY: Write Emax of CCOC(=O)N1CC2(CCC(N3CCN(c4ncccc4-c4ccc(C#N)cc4)CC3)C2)C1 (centres unmarked) [Example 53] ; system used: Human M4 mAChR (Homo sapiens, UniProt P08173)
RESULT: 97%

QUERY: Recall the reported Emax of CCOC(=O)N1CC2(CCC(N3CCN(c4ncccc4N4CC(C#N)C4)CC3)C2)C1 (centres unmarked) [Example 30] when tested on Human M4 mAChR (Homo sapiens, UniProt P08173).
RESULT: 70.3%

QUERY: Provide measured Emax on Human M4 mAChR (Homo sapiens, UniProt P08173) for CCOC(=O)N1CC2(CC(N3CCN(c4ncccc4-c4sncc4C)CC3)C2)C1 [Example 31] please.
RESULT: 101%

QUERY: Find the measured Emax of CCOC(=O)N1CC2(CC[C@@H](N3CCN(c4ncccc4-c4nnc(C)o4)CC3)C2)C1 [Example 51] with Human M4 mAChR (Homo sapiens, UniProt P08173) as test system.
RESULT: 68.6%

QUERY: Find Emax for CCOC(=O)N1CC2(CCC(N3CCN(c4ncccc4-c4cnsn4)CC3)C2)C1 (single isomer, unassigned) [Example 34] on Human M4 mAChR (Homo sapiens, UniProt P08173) and write it down.
RESULT: 96.2%

QUERY: Find the measured Emax of CCOC(=O)N1CC2(CCC(N3CCN(c4cccnc4OC(F)(F)F)CC3)C2)C1 (single isomer, unassigned) [Example 20] with Human M4 mAChR (Homo sapiens, UniProt P08173) as test system.
RESULT: 75.3%

QUERY: Look up and report measured Emax (Human M4 mAChR (Homo sapiens, UniProt P08173)) for the following compound: CCOC(=O)N1CC2(CC(N3CCN(c4ncccc4-c4cnccn4)CC3)C2)C1 [Example 35]
RESULT: 94.2%

QUERY: Recall the reported Emax of CCOC(=O)N1CC2(CC[C@@H](N3CCN(c4ncccc4-c4cnccn4)CC3)C2)C1 [Example 8] when tested on Human M4 mAChR (Homo sapiens, UniProt P08173).
RESULT: 98.7%

QUERY: Answer briefly: Emax recorded on Human M4 mAChR (Homo sapiens, UniProt P08173) for CCOC(=O)N1CC2(CC(N3CCN(c4ncccc4-c4cc(C)ns4)CC3)C2)C1 [Example 32]
RESULT: 84.3%

QUERY: Please report Emax with Human M4 mAChR (Homo sapiens, UniProt P08173) for item CCOC(=O)N1CC2(CC[C@@H](N3CCN(c4nccnc4-c4cncs4)CC3)C2)C1 [Example 11] .
RESULT: 66.4%

QUERY: Report value only: Emax, Human M4 mAChR (Homo sapiens, UniProt P08173), CCOC(=O)N1CC2(CCC(N3CCN(c4ncccc4-c4cncnc4)CC3)C2)C1 (centres unmarked) [Example 14]
RESULT: 93.7%

QUERY: // output Emax; input CCOC(=O)N1CC2(CCC(N3CCN(c4ncccc4C)CC3)C2)C1 (single isomer, unassigned) [Example 21] ; system Human M4 mAChR (Homo sapiens, UniProt P08173)
RESULT: 96.8%

QUERY: Report Emax under test system Human M4 mAChR (Homo sapiens, UniProt P08173) for CCOC(=O)N1CC2(CCC(N3CCN(c4ncccc4-c4ccc(NC(C)=O)cc4)CC3)C2)C1 (centres unmarked) [Example 52] .
RESULT: 92%

QUERY: Report value: Emax, system: Human M4 mAChR (Homo sapiens, UniProt P08173), compound: CCOC(=O)N1CC2(CC[C@@H](N3CCN(c4ncccc4-n4cc(C)cn4)CC3)C2)C1 [Example 9]
RESULT: 68.2%

QUERY: Please report Emax with Human M4 mAChR (Homo sapiens, UniProt P08173) for item CCOC(=O)N1CC2(CCC(N3CCN(c4ncc(F)cc4-c4cscn4)CC3)C2)C1 (single isomer, unassigned) [Example 26] .
RESULT: 59.8%

QUERY: Tell me its Emax on Human M4 mAChR (Homo sapiens, UniProt P08173): CCOC(=O)N1CC2(CC(N3CCN(c4ncccc4-c4ccc(C#N)cn4)CC3)C2)C1 [Example 24]
RESULT: 70.6%
